- assayText: Pharmacokinetic study in cannulated male Sprague-Dawley rats (serum and urine, HPLC)
- Type: in vivo, rat
- measurementContext: male, Sprague-Dawley, urine; rat, oral 100 mg/kg, mean ± SEM; read-out: t 1/2 urine (converted)
measurementLabel: half-life (h)

>>> numericvalue("COc1cc(/C=C/c2ccc(O)c(OC)c2)cc(OC)c1")
20.6

* * *

- assayText: Pharmacokinetic study in cannulated male Sprague-Dawley rats (serum and urine, HPLC)
- Type: in vivo, rat
- measurementContext: male, Sprague-Dawley, serum; rat, intravenous 10 mg/kg; read-out: Bioavailability (F%)
measurementLabel: bioavailability (%)

>>> numericvalue("COc1cc(/C=C/c2ccc(O)c(OC)c2)cc(OC)c1 [3-methoxypterostilbene]")
100

* * *

- assayText: Pharmacokinetic study in cannulated male Sprague-Dawley rats (serum and urine, HPLC)
- Format: in vivo, rat
- measurementContext: male, Sprague-Dawley, serum; rat, IV 10 mg/kg, mean ± SEM, n = 4 (abstract)
measurementLabel: AUC

>>> result("COc1cc(/C=C/c2ccc(O)c(OC)c2)cc(OC)c1 [3-methoxypterostilbene]")
"48100 ng·h/mL"

* * *

- assayText: Pharmacokinetic study in cannulated male Sprague-Dawley rats (serum and urine, HPLC)
- Type: in vivo, rat
- measurementContext: male, Sprague-Dawley; rat serum, PO 100 mg/kg, average
measurementLabel: Tmax (min)

>>> numericvalue("COc1cc(/C=C/c2ccc(O)c(OC)c2)cc(OC)c1")
30

* * *

- assayText: Pharmacokinetic study in cannulated male Sprague-Dawley rats (serum and urine, HPLC)
- Format: in vivo, rat
- measurementContext: male, Sprague-Dawley, serum; rat, oral 100 mg/kg, mean ± SEM
- Description: The HPLC system used was a Shimadzu HPLC (Kyoto, Japan), consisting of two LC-10A pumps, a SIL-10AF autoinjector, a SPD-M10A photodiode array detector, and a SCL-10A system controller. Data collection and integration were achieved using Shimadzu EZ Start Class VP (version 7.4) software. […] Male Sprague-Dawley rats (n = 8, average weight 200 g) were cannulated as described in the Animals and Surgical Procedures section. […] Samples were stored at −20°C until analyzed. […]
measurementLabel: MRT (h)

>>> numericvalue("COc1cc(/C=C/c2ccc(O)c(OC)c2)cc(OC)c1")
105

Where do the numbers come from? From paper PMC3652196.
